MEASUREMENT NOTES: Evaluation of photocuring ability (photorheometer)
Format: physicochemical
EXPERIMENTAL SETUP: ink: 950 mg monomer + 50 mg IRGACURE 907; 365 nm, 50 mW/cm^2, 10 μm gap; saturated elastic modulus
MEASURED QUANTITY: Photocuring (photorheometer) Elastic modulus

COMPOUND: C=CC(=O)OCCSCC [Ref. Syn. Ex. 1, 2-acryloxy ethylethyl sulfide, reference compound]
RESULT: 1.1*10^3 Pa
--
COMPOUND: C=C(C)C(=O)OCCSCC [Ref. Syn. Ex. 2, 2-methacryloxyethylethyl sulfide, reference compound]
RESULT: <1.0 Pa
--
COMPOUND: C=C(C)C(=O)OCCN1CCOCC1 [Commercial product (e), reference compound]
RESULT: 8.6*10^4 Pa
--
COMPOUND: C=C(C)C(=O)OC1CCN(C(=O)OCC)CC1
RESULT: 9.4*10^4 Pa
--
COMPOUND: C=CC(=O)OCCOC(=O)N1CCCCC1
RESULT: 5.0*10^4 Pa
--
COMPOUND: C=CC(=O)OCCN1CCOCC1 [Commercial product (d), reference compound]
RESULT: 1.3*10^4 Pa
--
COMPOUND: C=CC(=O)OCC(COC(=O)N(CC)CC)OC(=O)C=C (stereo not shown)
RESULT: 1.0*10^5 Pa
--
COMPOUND: C=CC(=O)OCCOC(=O)N1CCOCC1
RESULT: 7.9*10^4 Pa
--
COMPOUND: C=C(C)C(=O)OCCOC(=O)N1CCCCC1
RESULT: 9.0*10^4 Pa
--
COMPOUND: C=CC(=O)OCCOC(=O)N(CC)CC
RESULT: 9.4*10^3 Pa
--
COMPOUND: C=C(C)C(=O)OCCOC(=O)N(CC)CC
RESULT: 8.0*10^4 Pa
--
COMPOUND: C=CC(=O)OCCOC(=O)NCCCC [Commercial product (c), reference compound]
RESULT: 3.2*10^4 Pa
--
COMPOUND: C=C(C)C(=O)OCCOc1ccccc1 [Commercial product (b), reference compound]
RESULT: 8.0*10^4 Pa
--
COMPOUND: C=CC(=O)OC1CCN(C(=O)OCC)CC1
RESULT: 8.4*10^4 Pa
--
COMPOUND: C=CC(=O)OCCOc1ccccc1 [Commercial product (a), reference compound]
RESULT: 4.8*10^4 Pa
--
COMPOUND: C=C(C)C(=O)OCC(COC(=O)N(CC)CC)OC(=O)C(=C)C (stereo not shown)
RESULT: 1.0*10^5 Pa
--
COMPOUND: C=CC(=O)OCC(CC)(COC(=O)C=C)COC(=O)N(CC)CC
RESULT: 1.0*10^5 Pa
--
COMPOUND: C=C(C)C(=O)OCC(CC)(COC(=O)C(=C)C)COC(=O)N(CC)CC
RESULT: 1.0*10^5 Pa
--
COMPOUND: C=C(C)C(=O)OCCOC(=O)N1CCOCC1
RESULT: 7.6*10^4 Pa

These data points were gathered from patent US9212132B2.
